B1: tRNA (parent)
chain: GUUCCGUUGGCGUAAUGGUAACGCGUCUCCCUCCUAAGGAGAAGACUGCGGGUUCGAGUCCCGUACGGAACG

Variants of: B1
Experiment: yeast fitness relative to wild type (ratio to wild type); higher = fitter; tRNA-Arg(CCU), competitive growth, 37 C, YPD
Fewer inactive variants are shown than the library holds.
Classification field: enter criterion met for yeast fitness values not below 0.7, criterion not met for values below it.

Before answering, review these 8 worked examples.
> print(dat)
                    variant        class.label
1  G18C C27U G38A G39C U64C  criterion not met
2                  U2A A45G      criterion met
3                  G6A C29U      criterion met
4    U2G G9A A36G A57G C60U  criterion not met
5            G18C G51A A69G  criterion not met
6                 C55A G58A  criterion not met
7             C4A C30G C49U  criterion not met
8       C22G G52C C66U G68A  criterion not met

Does A21G C27G G63A have a reported yeast fitness of at least 0.7?
criterion not met

Textbook exercise: given the entry U19A A40C C55A C66A , state whether its yeast fitness is greater than or equal to 0.7.
criterion not met

Tell me whether yeast fitness is at least 0.7 here: U8C A69C
criterion met

Determine whether measured yeast fitness meets or exceeds 0.7 for C27A C30G G41C C61G C62U C66U A69U
criterion not met

Could you please find out whether A21C C22U G38C A40C has yeast fitness that meets 0.7 or exceeds it?
criterion not met

Answer whether yeast fitness of G9C A14G G52C C60A is greater than or equal to 0.7.
criterion not met

Identify whether the reported yeast fitness of the following variant is 0.7 or greater: G9C C11A A15U C24G C33G G38C A43G C60U G63A
criterion not met
